All figures here come from the supplement of paper PMC10567573.

B1: ZBED2 (parent)
chain: FHLAPARAGHHPNQYATCRLCGRQ

Variants of: B1
Protocol text: protein stability index of a GFP-peptide fusion (GPS, HEK-293T) (PSI 1-6); higher = more stable;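 further: lentivirally expressed fusions sorted by FACS into six bins by GFP to DsRed ratio, PSI derived from sequencing read proportions per bin multiplied by bin number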
Experimental context: c terminus: a fixed tail appended
Respond with 1 (yes) for protein stability index values of 2 and above, 0 (no) for values below.

Example results:
sequence_input=FHLAPARAGHHPNQYATCRLYGRQ group_label="0 (no)"
sequence_input=FELAPARAGHHPNQYATCRLCGRQ group_label="1 (yes)"
sequence_input=FHLCPARAGHHPNQYATCRLCGRQ group_label="1 (yes)"

Let us examine a further case.
Input line: Evaluate FHLAPARAGHHPNQYMTCRLCGRQ : protein stability index at minimum 2?
Output line: 0 (no)
